Entry source: patent US20240199584A1

- testTarget: KRAS G12C (Homo sapiens, UniProt P01116, G12C)
- Sequence (P01116 1-188 isoform P01116-2 G12C): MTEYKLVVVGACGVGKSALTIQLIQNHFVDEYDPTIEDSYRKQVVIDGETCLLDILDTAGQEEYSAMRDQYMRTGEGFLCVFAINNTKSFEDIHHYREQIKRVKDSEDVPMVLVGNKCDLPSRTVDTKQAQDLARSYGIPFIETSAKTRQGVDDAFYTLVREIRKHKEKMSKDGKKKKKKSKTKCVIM
- assayNotes: Cellular KRAS:RAF Disruption Assay (NanoBRET), KRAS G12C
- conditionsUsed: HEK293 T cells co-expressing RAF1 and KRAS G12C, 24 hours; read-out: RAS::RAF binding via NanoBRET IC50, KRAS G12C
pIC50: −log10 of the molar value.
Reported pIC50 values for the following compounds.
endpointLabel: pIC50

[[record]]
compound = "C#Cc1c(F)ccc2cc(O)cc(-c3ncc4c(N5CCOC6CC65)nc(OC[C@@]56CCCN5C[C@H](F)C6)nc4c3F)c12 (stereo partly drawn)"
testtarget = "KRAS G12C (Homo sapiens, UniProt P01116, G12C)"
endpointlabel = "pIC50"
valuereported = 7.89

[[record]]
compound = "C#Cc1c(F)ccc2cc(O)cc(-c3ncc4c(N5CCOCC(F)(F)C5)nc(OC[C@]56CCC[C@H]5N(C)CCC6)nc4c3F)c12"
testtarget = "KRAS G12C (Homo sapiens, UniProt P01116, G12C)"
endpointlabel = "pIC50"
valuereported = 8.01

[[record]]
compound = "C#Cc1c(F)ccc2cc(O)cc(-c3ncc4c(N5CCOCC(C)(O)C5)nc(OC[C@]56CCC[C@H]5N(C)CCC6)nc4c3F)c12 (stereo partly drawn)"
testtarget = "KRAS G12C (Homo sapiens, UniProt P01116, G12C)"
endpointlabel = "pIC50"
valuereported = 7.73

